Measurement notes: RNA encapsulation efficacy by Quant-IT Ribogreen kit
Format: physicochemical
Test parameters: LNP with cirRNA (SEQ ID NO: 1)
Measured Encapsulation Efficiency % by item
I only need the number, in %, no unit after it.

Example entries begin here.
CCCCCCCCC(CCCCCCCC)OC(=O)CCCCCCCN(CCCCCCCCOC(=O)C(CCCCCC)CCCCCCCC)CCOC(=O)NCCN1CCCC1 (stereo not shown): 95
CCCCCCCCCCC(CCCCCCCC)COC(=O)CCCCCN(CCCCCC(=O)OCC(CCCCCCCC)CCCCCCCCCC)CCOC(=O)NCCN(C)C (stereo not shown): 97

Query block: For the molecule CCCCCCCCCC(=O)OCCCCCCCN(CCCCCCCCOC(=O)C(CCCCCC)CCCCCCCC)CCOC(=O)NCCCN1CCCCC1 (stereo not shown) , what Encapsulation Efficiency % is on record?
Result block: 87

Query block: What value of measured Encapsulation Efficiency % is listed for CCCCCCCCCCCOC(=O)CCCCCN(CCCCCC(=O)OCCCCCCCCCCC)CCOC(=O)NCCCN(C)C ?
Result block: 89

Query block: Given the molecule CCCCCCCCCCC(CCCCCCCC)COC(=O)CCCCCN(CCCCCC(=O)OCC(CCCCCCCC)CCCCCCCCCC)CCCOC(=O)NCc1ncc[nH]1 (stereo not shown) , what is its reported Encapsulation Efficiency %?
Result block: 92

Query block: Reported Encapsulation Efficiency % for CCCCCCCCCCCOC(=O)CCCCCN(CCCCCCCC(=O)OC(CCCCCCCC)CCCCCCCC)CCOC(=O)NCCN(C)C : what is it?
Result block: 72

Query block: Param item = CCCCCCCC/C=C\CCCCCCCCN(CCCCCCCCOC(=O)C(CCCCCC)CCCCCCCC)CCOC(=O)NCCN1CCN(C)CC1 (stereo not shown) ; retrieve measured Encapsulation Efficiency %.
Result block: 96

* * *

Measurement notes: LNP size and polydispersity index (PDI) by dynamic light scattering
Format: physicochemical
Test parameters: LNP with mRNA (SEQ ID NO: 2); in nm (unit assumed)
Please respond with satisfied when measured Size is strictly beneath 90, and with not satisfied in all other cases.

CCCCCCCCCC(=O)OCCCCCCCN(CCCCCCCCOC(=O)C(CCCCCC)CCCCCCCC)CCOC(=O)NCCN1CCCC1 (centres unmarked) [Lipid 195]: not satisfied

Query block: is_below(Size, 90) for CCCCC/C=C\C/C=C\CCCCCCCCN(CCCCCCCC(=O)OC(CCCCCCCC)CCCCCCCC)CCOC(=O)NCCN1CCCCC1 [Lipid 127] ?
Result block: satisfied

Query block: Is it true that Size reported for CCCCC/C=C\C/C=C\CCCCCCCCN(CCCCCCCC/C=C\CCCCCCCC)CCOC(=O)NCc1ncc[nH]1 [Lipid 68] is less than 90?
Result block: satisfied

Query block: Just wondering, is Size of CCCCC/C=C\C/C=C\CCCCCCCCN(CCCCCCCC(=O)OC(CCCCCCCC)CCCCCCCC)CCOC(=O)NCc1ncc[nH]1 [Lipid 132] below 90?
Result block: satisfied

Query block: Hello, I'm reviewing records and need to know if Size of CCCCC/C=C\C/C=C\CCCCCCCCN(CCCCCCCC(=O)OC(CCCCCCCC)CCCCCCCC)CCCOC(=O)NCCN1CCCCC1 [Lipid 278] is below 90. Could you check?
Result block: not satisfied

Query block: Take the compound CCCCCCCCCCC(CCCCCCCC)COC(=O)CCCCCN(CCCCCC(=O)OCC(CCCCCCCC)CCCCCCCCCC)CCCOC(=O)NCCN1CCCC1 (centres unmarked) [Lipid 369] and say whether its Size is less than 90.
Result block: not satisfied

Query block: # strict comparison: is reported Size < 90? input = CCCCC/C=C\CCOC(=O)CCCCCN(CCCCCC(=O)OCC(CCCCCCCC)CCCCCCCCCC)CCOC(=O)NCCN1CCCCC1 (centres unmarked) [Lipid 245]
Result block: not satisfied

Query block: Lab note: Size threshold 90. Does this compound come in strictly under it? CCCCCCCCCCC(CCCCCCCC)COC(=O)CCCCCN(CCCCCC(=O)OCC(CCCCCCCC)CCCCCCCCCC)CCCOC(=O)NCCN1CCCCC1 (centres unmarked) [Lipid 370]
Result block: not satisfied

Query block: Consider the compound CCCCCCCCCCCOC(=O)CCCCCN(CCCCCCCC(=O)OC(CCCCCCCC)CCCCCCCC)CCOC(=O)NCCN1CCCCC1 [Lipid 165] . Is its Size strictly less than 90?
Result block: not satisfied

Query block: Please let me know if CCCCCCCCC(CCCCCCCC)OC(=O)CCCCCCCN(CCCCCCCCOC(=O)C(CCCCCC)CCCCCCCC)CCOC(=O)NCCN1CCCC1 (centres unmarked) [Lipid 148] shows Size below 90.
Result block: not satisfied

Query block: Record CCCCCCCCCC(=O)OCCCCCCCN(CCCCCCCCOC(=O)C(CCCCCC)CCCCCCCC)CCOC(=O)NCCN1CCCCC1 (centres unmarked) [Lipid 196] : is its Size strictly below 90?
Result block: not satisfied

meta.source: patent US12691070B2
